Biological target: T1, 4H3277-bH
T1 chain: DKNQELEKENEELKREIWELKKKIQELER
Test: two-hybrid library CCNG1;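 note: natural log of median RNA to DNA barcode read ratio; higher means stronger binding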
RESULT TYPE: interaction score

For orientation, consider the following solved cases.
# BINDER, interaction score
records = [
    ("DEIQELEKKIEELERKNWELKKKNQELER [4H319-bH]", -0.168),
    ("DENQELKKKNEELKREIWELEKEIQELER [4H1985-bH]", -0.449),
    ("DKIQELKKKIEELKRKIWELEKENQELER [4H2915-bH]", -1.15),
]

P: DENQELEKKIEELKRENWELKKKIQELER [4H1373-bH]
Q: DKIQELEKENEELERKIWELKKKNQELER [4H2223-bH]
## Input Of P and Q , whose reported interaction score is numerically smaller? Label of pick, please.
## Output P

Data origin, for the record: paper PMC10397247
